- System: SK-MEL-2 melanoma
- PROTOCOL DETAILS: NCI-60 one-dose screen, 48 h (100 = growth as untreated, 0 = no growth, -100 = all killed)
- EXPERIMENTAL SETUP: 10 µM unless noted
This is part of a sample that, as a whole, favours compounds with a hit. Of some 83,000 tested, about 20% had one in any assay.
Recorded growth for the following compounds
Form entry: value (%) — number only.

// below: answered compounds
>  <COMPOUND>
c1ccc(-c2cc3n4c(-c5ccccc5)nn(-c5ccccc5)c4cnc-3n2)cc1

>  <MEASUREMENT UNIT>
%

>  <growth>
72.6

$$$$
>  <COMPOUND>
O=S(=O)(Nc1ccc(NS(=O)(=O)c2ccccc2)c(Cl)c1)c1ccccc1

>  <MEASUREMENT UNIT>
%

>  <growth>
91.6

$$$$
>  <COMPOUND>
Clc1ccc2c(NCCCCNc3nc(N4CCCCC4)nc4ccccc34)ccnc2c1

>  <MEASUREMENT UNIT>
%

>  <growth>
-65.9

$$$$
>  <COMPOUND>
CC(C)(C)N1CCC1CN (stereo unspecified)

>  <MEASUREMENT UNIT>
%

>  <growth>
72.1

$$$$
>  <COMPOUND>
O=c1ccccc(-c2ccc(-c3ccco3)cc2)c1O

>  <MEASUREMENT UNIT>
%

>  <growth>
19.9

$$$$
>  <COMPOUND>
Cc1[nH]c(-c2cc(N)ccc2Cl)c2c1C(=O)CCCC2

>  <MEASUREMENT UNIT>
%

>  <growth>
31

$$$$
>  <COMPOUND>
Cc1ccc(-c2onc3c(=O)[nH]nc(-c4ccccc4)c23)cc1

>  <MEASUREMENT UNIT>
%

>  <growth>
25.6

$$$$
>  <COMPOUND>
CCN(CC)S(=O)(=O)c1ccc(OC)c(NC(=O)c2[nH]c(C)c3c2CCCCC3=O)c1

>  <MEASUREMENT UNIT>
%

>  <growth>
55.3

$$$$

[ask] Check SK-MEL-2 melanoma data and give growth for `COc1ccc(N=Nc2nccs2)c(O)c1` .
[reply] 64.2

[ask] Check SK-MEL-2 melanoma data and give growth for `O=C1/C(=C/c2ccc(Cl)cc2)SC(=S)N1CCc1ccc(O)cc1` .
[reply] 99.7

[ask] Check SK-MEL-2 melanoma data and give growth for `O=C1NC(=S)N[C@H]1CC(=O)n1cnc2ccccc21` .
[reply] 104

====

- Test system: A549/ATCC NSCLC
- PROTOCOL DETAILS: NCI-60 one-dose screen, 48 h
- EXPERIMENTAL SETUP: 10 µM unless noted
The panel holds about 83,000 compounds, 20% with a hit somewhere; the sample as a whole holds those more often. The source made the active and inactive calls. The calls were made as follows: active = growth percent below 10; inactive = the rest.
Please answer using one outcome listed in active, inactive

Field: example entries. Status: answers known.
>  <CHEM SMILES>
CCCOc1cc2ccccc2cc1C(=O)Nc1nc(NC)c2c(ccc3nccc32)[nH]1

>  <DISCRETE LABEL>
active

$$$$
>  <CHEM SMILES>
CC(C)C1=C[C@@]23CC[C@@H]4[C@](C)(CCC[C@@]4(C)C(=O)N4CCCNCC4)[C@H]2C[C@@H]1[C@H]1C(=O)CCC(=O)[C@H]13

>  <DISCRETE LABEL>
inactive

$$$$
>  <CHEM SMILES>
CCCCN(CCCC)CCCn1c(-c2ccccc2)ccc1-c1ccccc1

>  <DISCRETE LABEL>
inactive

$$$$
>  <CHEM SMILES>
C(=N/Nc1ncc(-c2cc3cc(-c4ccccc4)ccc3o2)s1)/c1cccs1

>  <DISCRETE LABEL>
inactive

$$$$

Please find the next compound below.
[ask] Lab log entry: `O=S(=O)(Nc1ccc(NS(=O)(=O)c2ccccc2)c(Cl)c1)c1ccccc1` — outcome as called in the assay?
[reply] inactive

====

- Test system: UO-31 renal
- PROTOCOL DETAILS: NCI-60 one-dose screen, 48 h (100 = growth as untreated, 0 = no growth, -100 = all killed)
- EXPERIMENTAL SETUP: 10 µM unless noted
This is part of a sample that, as a whole, favours compounds with a hit. Of some 83,000 tested, about 20% had one in any assay.
Recorded growth for the following molecules
Form entry: value (%) — number only.

>  <CHEM SMILES>
O=C1c2cccc3cccc(c23)C(=O)N1CCCCCN1CCN(CCCCCOc2ccc(-c3nc4ccc(N5CCOCC5)cc4[nH]3)cc2)CC1

>  <growth [%]>
4.03

$$$$
>  <CHEM SMILES>
COc1cc(CNc2oc(-c3ccccc3)c(-c3ccccc3)c2C#N)cc(CN2CCN(C)CC2)c1O

>  <growth [%]>
51.5

$$$$
>  <CHEM SMILES>
C=C(C)[C@@H]1CC[C@]2(C(N)=O)CC[C@]3(C)[C@H](CC[C@@H]4[C@@]5(C)C/C(=C/c6ccco6)C(=O)C(C)(C)[C@@H]5CC[C@]43C)[C@@H]12

>  <growth [%]>
84.4

$$$$

Now examine the next entry.
[ask] Using known records, supply growth for `Cn1c(O)c(N=NC(=O)c2cc(-c3ccccc3)on2)c2ccccc21`
[reply] 88

====

- Tested on: NCI-H522 lung
- PROTOCOL DETAILS: NCI-60 one-dose screen, 48 h (100 = growth as untreated, 0 = no growth, -100 = all killed)
- EXPERIMENTAL SETUP: 10 µM unless noted
Compounds without any hit were thinned out: in the full panel of roughly 83,000, 20% have a hit. Active and inactive are the calls of the source. The calls were made as follows: active = growth percent below 10; inactive = the rest.
MEASURED QUANTITY: growth

// below: answered molecules
>  <MOLECULE>
Cc1nn(-c2cc(=O)[nH]c3ccccc23)c(N)c1C#N

>  <growth>
95.6% (inactive)

$$$$
>  <MOLECULE>
COc1ccc(-n2nc(C)c3c(Nc4ccc(NC(=O)Nc5ccc(Cl)c(C(F)(F)F)c5)cc4)ncnc32)cc1

>  <growth>
-18.4% (active)

$$$$
>  <MOLECULE>
Cc1cc(N2CCCCC2)nc(NC2CCCC(Nc3ccnc4cc(Cl)ccc34)C2)n1 (stereo not given)

>  <growth>
-54.6% (active)

$$$$
>  <MOLECULE>
OCCN1CCN(c2nc(Nc3ccc(-c4nc5ccccc5[nH]4)cc3)c3cn[nH]c3n2)CC1

>  <growth>
-85.6% (active)

$$$$

Now examine the next entry.
[ask] Using known records, supply growth for `COc1cccc(Nc2nc(SC)nc(-c3cccc([N+](=O)[O-])c3)c2C#N)c1`
[reply] 72.1% (inactive)

====

Recorded growth for the following compounds
- System: UACC-62 melanoma
- PROTOCOL DETAILS: NCI-60 one-dose screen, 48 h (100 = growth as untreated, 0 = no growth, -100 = all killed)
- EXPERIMENTAL SETUP: 10 µM unless noted
Compounds without any hit were thinned out: in the full panel of roughly 83,000, 20% have a hit. Active and inactive are the calls of the source. How the source made its calls: active means growth percent below 10; inactive means the rest.

>  <COMPOUND>
Cc1cc(Nc2ccc(C)c(Cl)c2)n2nc(C(F)(F)F)nc2n1

>  <MEASURED QUANTITY>
growth

>  <EXPERIMENTAL VALUE>
66.9% (inactive)

$$$$
>  <COMPOUND>
OC(c1cc2cc(Cl)c(Cl)cc2c2cc(C(F)(F)F)ccc12)C1CCCCN1 (stereo unspecified)

>  <MEASURED QUANTITY>
growth

>  <EXPERIMENTAL VALUE>
-38.4% (active)

$$$$
>  <COMPOUND>
CC1(C)CC[C@]2(C(=O)Nc3ccccn3)CC[C@]3(C)C(=CC[C@@H]4[C@@]5(C)C/C(=C/c6cccnc6)C(=O)C(C)(C)[C@@H]5CC[C@]43C)[C@H]2C1

>  <MEASURED QUANTITY>
growth

>  <EXPERIMENTAL VALUE>
34.1% (inactive)

$$$$
>  <COMPOUND>
N#C/C(=C\c1ccc(-c2cc(C(F)(F)F)ccc2Cl)o1)c1nc(-c2ccco2)cs1

>  <MEASURED QUANTITY>
growth

>  <EXPERIMENTAL VALUE>
78.9% (inactive)

$$$$
>  <COMPOUND>
COc1ccc(C2CC(c3ccc4ccccc4c3)=NN2/C=C2\SC(=S)N(NC(=O)Cc3ccccc3Nc3c(Cl)cccc3Cl)C2=O)cc1 (stereo unspecified)

>  <MEASURED QUANTITY>
growth

>  <EXPERIMENTAL VALUE>
42.8% (inactive)

$$$$

[ask] Using known records, supply growth for `CNC(=O)c1cc(Oc2ccc(NC(=O)Nc3ccc(Cl)c(OC(F)(F)F)c3)c(F)c2)ccn1`
[reply] 5.13% (active)

[ask] Using known records, supply growth for CC1SC(c2ccc(N(C)C)cc2)N(NC(=O)C(O)(c2ccccc2)c2ccccc2)C1=O (stereo unspecified)
[reply] 79.9% (inactive)

[ask] Using known records, supply growth for `CN1CCN(c2ccc(Nc3c4ccccc4nc4ccccc34)cc2)CC1`
[reply] 109% (inactive)

[ask] Using known records, supply growth for `COCCNc1ccc2c3c(cccc13)C(=O)N(CCN(C)C)C2=O`
[reply] 3.48% (active)

[ask] Using known records, supply growth for `c1ccc(CCNc2ncnc3[nH]ncc23)cc1`
[reply] 86.4% (inactive)

[ask] Using known records, supply growth for `O=C1CC(=NCC(=O)n2c(-c3ccccc3)nc3ccccc32)NN1`
[reply] 94.9% (inactive)

[ask] Using known records, supply growth for `COc1cccc(-c2nc3sccn3c2-c2ccnc(NCCCNS(=O)(=O)c3cccc(Cl)c3)c2)c1`
[reply] -7.03% (active)

[ask] Using known records, supply growth for `COc1cc(-c2nn(-c3ccc(Br)cc3)cc2C(=O)O)ccc1O`
[reply] 109% (inactive)

[ask] Using known records, supply growth for `O=C(C(=O)c1ccc2c(c1)OCO2)c1ccc2c(c1)OCO2`
[reply] 105% (inactive)
